Each entry below carries its recorded Tm.
Molecular target: NR2F6 (ligand binding domain, amino acids 163-404) (Homo sapiens)
Construct: HIS (N, cleaved yes); FLAG (N, cleaved yes); TEV site (N, cleaved yes); made in house; host or cells: E. coli BL21 (DE3)
Sequence (P10588 163-404): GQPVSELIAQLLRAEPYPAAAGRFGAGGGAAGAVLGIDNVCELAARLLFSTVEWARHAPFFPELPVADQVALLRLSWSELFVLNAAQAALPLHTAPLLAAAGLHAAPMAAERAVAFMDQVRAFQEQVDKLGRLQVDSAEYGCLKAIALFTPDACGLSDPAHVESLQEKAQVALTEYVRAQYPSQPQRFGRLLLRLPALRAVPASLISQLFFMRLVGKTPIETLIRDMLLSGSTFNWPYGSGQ
Assay: Thermoshift analysis (TSA) of compound binding to NR2F6
Conditions: Table 1.1; 100 μM compound, 0.5 mg/ml NR2F6, 1% DMSO; NR2F6 alone Tm 48 °C
Dear colleague, please return just the value in °C, with no unit written.

Reference set, count: 5
Compound: COc1ccc(NS(=O)(=O)c2cccc(NC(=O)c3ccc(Cl)nc3)c2)cc1 [Cpd 116]
Measure: Tm
Data value: 47.5
//
Compound: CO[C@H]1/C=C/O[C@@]2(C)Oc3c(C)c(O)c4c(O)c(c(/C=N/N5CCN(C)CC5)c(O)c4c3C2=O)NC(=O)/C(C)=C\C=C\[C@H](C)[C@H](O)[C@@H](C)[C@@H](O)[C@@H](C)[C@H](OC(C)=O)[C@@H]1C [Cpd 87, Rifampicin]
Measure: Tm
Data value: 49.5
//
Compound: C[C@H](CCC(=O)NCCS(=O)(=O)O)[C@H]1CC[C@H]2[C@@H]3[C@H](O)C[C@@H]4C[C@H](O)CC[C@]4(C)[C@H]3C[C@H](O)[C@]12C [Cpd 75, Taurocholic acid]
Measure: Tm
Data value: 47.5
//
Compound: CC(=O)c1c(C)[nH]c(C(=O)OCCCCN2C(=O)c3ccccc3C2=O)c1C [Cpd 121]
Measure: Tm
Data value: 48
//
Compound: Clc1ccc(OCCN2CCN(c3ncnc4sccc34)CC2)cc1 [Cpd 120]
Measure: Tm
Data value: 46.5

Now take the following compound into account.
Using NR2F6 (ligand binding domain, amino acids 163-404) (Homo sapiens) as the test system, report measured Tm of CC(C)(Sc1ccc(CCN(CCCCC2CCCCC2)C(=O)NC2CCCCC2)cc1)C(=O)O [Cpd 74, GW 7647] .
45.5

---

Each entry below carries its recorded Tm.
Biological target: NR2F6 (ligand binding domain, amino acids 163-404) (Homo sapiens)
Construct: HIS (N, cleaved yes); FLAG (N, cleaved yes); TEV site (N, cleaved yes); made in house; host or cells: E. coli BL21 (DE3)
Sequence (P10588 163-404): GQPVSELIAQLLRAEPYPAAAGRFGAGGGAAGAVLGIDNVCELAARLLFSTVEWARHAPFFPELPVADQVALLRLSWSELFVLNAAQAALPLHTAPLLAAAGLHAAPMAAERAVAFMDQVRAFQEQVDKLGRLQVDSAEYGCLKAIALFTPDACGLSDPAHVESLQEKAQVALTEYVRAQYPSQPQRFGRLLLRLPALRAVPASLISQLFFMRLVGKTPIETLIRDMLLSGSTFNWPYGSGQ
Test: Thermoshift analysis (TSA) of compound binding to NR2F6
Conditions: Table 1.1; 100 μM compound, 0.5 mg/ml NR2F6, 1% DMSO; NR2F6 alone Tm 48 °C
Dear colleague, please return just the value in °C, with no unit written.

Compound: CCN(CC)S(=O)(=O)c1cccc(NC(=O)COC(=O)c2[nH]c(C)c(C(C)=O)c2C)c1
Tm, °C: 47.5
//
Compound: C=C1/C(=C\C=C2/CCC[C@]3(C)[C@@H]([C@H](C)CCCC(C)(C)O)CC[C@@H]23)C[C@@H](O)C[C@@H]1O [Cpd 83, 1a,25-Dihydroxyvitamin D3]
Tm, °C: 46.5
//
Compound: CC(C)=CCC/C(C)=C/CC/C(C)=C/CC/C(C)=C/CO
Tm, °C: 47.5

Answer with the recorded Tm of `CCN=c1scc(-c2ccc3c(c2)NC(=O)CO3)n1N=C1CCCC1` only.
48

Answer with the recorded Tm of CCCCCCCC/C=C\CCCCCCCC(=O)NCCO [Cpd 76, N-Oleoylethanolamide] only.
48.5

Answer with the recorded Tm of `CC(=O)c1ccc(N2CCN(C(=S)Nc3ccc(Oc4ccccc4)cc3)CC2)cc1` only.
47.5

Answer with the recorded Tm of `COc1ccc(/C=N/OCC(=O)NC(c2ccccc2)c2ccccc2)cc1OC` only.
46

Answer with the recorded Tm of `O=C(Nc1ccncc1)c1ccc(Cl)c(S(=O)(=O)N2CCc3ccccc32)c1` only.
47.5

---

biological target: NR2F6 (ligand binding domain, amino acids 163-404) (Homo sapiens); construct: HIS (N, cleaved yes); FLAG (N, cleaved yes); TEV site (N, cleaved yes); made in house; host or cells: E. coli BL21 (DE3); test: Thermoshift analysis (TSA) of compound binding to NR2F6; conditions: Table 1.1; 100 μM compound; shift versus NR2F6 alone (Tm 48 °C); read-out: delta Tm
Each entry below carries its recorded ΔTm at 100 µM.
Report field: quantity (unit follows the number).

Molecule: Cc1cccc(Nc2cc(Cl)nc(SCC(=O)O)n2)c1C [Cpd 66, WY-14643]
Data value: -0.5 °C

Molecule: CCCc1c(OCCCCc2nnn[nH]2)ccc(C(C)=O)c1O [Cpd 67, LY 171883]
Data value: -1.5 °C

Molecule: CC(C)(Oc1ccc(CCNC(=O)c2ccc(Cl)cc2)cc1)C(=O)O [Cpd 61, Bezafibrate]
Data value: 0 °C

Molecule: Cc1ccc(C)c(OCCCC(C)(C)C(=O)O)c1 [Cpd 68, Gemfibrozil]
Data value: -0.5 °C

Answer with the recorded ΔTm at 100 µM of CC/C=C\C/C=C\C/C=C\C/C=C\C/C=C\C/C=C\CCC(=O)O [Cpd 89] only.
-0.5 °C

Answer with the recorded ΔTm at 100 µM of CC(CCC(=O)NCC(=O)O)C1CCC2C3CCC4CC(O)CCC4(C)C3CC(O)C12C (stereo not drawn) [Cpd 69, Glycodeoxycholic acid] only.
-1.5 °C

---

Each entry below carries its recorded Tm.
target: NR2F6 (ligand binding domain, amino acids 163-404) (Homo sapiens); construct: HIS (N, cleaved yes); FLAG (N, cleaved yes); TEV site (N, cleaved yes); made in house; host or cells: E. coli BL21 (DE3); test: Thermoshift analysis (TSA) of compound binding to NR2F6; details: Table 1.2; 100 μM compound; NR2F6 alone Tm 48 °C
Dear colleague, please return just the value in °C, with no unit written.

Reference set, count: 4
Molecule: O=Cc1c2c(cc3c1=Nc1ccccc1-3)=Nc1ccccc1-2 [Cpd 17, 6-Formylindolo [3,2-B] carbazole]
Measure: Tm
Data value: 50

Molecule: CC1=C(/C=C/C(C)=C/C=C/C(C)=C/C(=O)Nc2ccc(O)cc2)C(C)(C)CCC1 [Cpd 43, 4-Hydroxyphenylretinamide]
Measure: Tm
Data value: 50

Molecule: N[C@@H](Cc1cc(I)c(O)c(I)c1)C(=O)O
Measure: Tm
Data value: 50

Molecule: CO[C@H]1/C=C/O[C@@]2(C)Oc3c(C)c(O)c4c(O)c(c(/C=N/N5CCN(C)CC5)c(O)c4c3C2=O)NC(=O)/C(C)=C\C=C\[C@H](C)[C@H](O)[C@@H](C)[C@@H](O)[C@@H](C)[C@H](OC(C)=O)[C@@H]1C
Measure: Tm
Data value: 49.5

Now take the following molecule into account.
Answer with the recorded Tm of `CCN(CC)S(=O)(=O)c1cccc(NC(=O)CNc2cccc(S(=O)(=O)N3CCCC3)c2)c1` only.
49

---

Each entry below carries its recorded delta Tm.
target: NR2F6 (ligand binding domain, amino acids 163-404) (Homo sapiens); construct: HIS (N, cleaved yes); FLAG (N, cleaved yes); TEV site (N, cleaved yes); made in house; host or cells: E. coli BL21 (DE3); assay: Thermoshift analysis (TSA) of compound binding to NR2F6; conditions: Table 1.1; 100 μM compound; shift versus NR2F6 alone (Tm 48 °C)
Dear colleague, please return just the value in °C, with no unit written.

Reference set, count: 4
Compound: S=C(NCCc1ccccc1)Nc1cccc2cnccc12 [Cpd 136]
Data value: −0.5

Compound: CC(=O)c1ccc(N2CCN(C(=S)Nc3ccc(Oc4ccccc4)cc3)CC2)cc1 [Cpd 131]
Data value: −0.5

Compound: COc1ccc(CNc2ncnc3ccccc23)cc1 [Cpd 126]
Data value: −0.5

Compound: Cc1cc(-n2c(C)cc(C(=O)CSc3ncnc4ccccc34)c2C)no1 [Cpd 122]
Data value: −0.5

Using NR2F6 (ligand binding domain, amino acids 163-404) (Homo sapiens) as the test system, report measured delta Tm of c1ccc(CNc2ncnc3ccccc23)cc1 [Cpd 134] .
−0.5

Using NR2F6 (ligand binding domain, amino acids 163-404) (Homo sapiens) as the test system, report measured delta Tm of COc1ccc(NS(=O)(=O)c2cccc(NC(=O)c3ccc(Cl)nc3)c2)cc1 [Cpd 116] .
−0.5

Using NR2F6 (ligand binding domain, amino acids 163-404) (Homo sapiens) as the test system, report measured delta Tm of CCCCCC=CCC=CCC=CCC=CCCCC(=O)O [Cpd 84, 5,8,11,14-Eicosatetranoic acid] .
−1.5

Using NR2F6 (ligand binding domain, amino acids 163-404) (Homo sapiens) as the test system, report measured delta Tm of C[C@H](CCC(=O)NCC(=O)O)[C@H]1CC[C@H]2[C@@H]3[C@H](O)C[C@@H]4C[C@H](O)CC[C@]4(C)[C@H]3C[C@H](O)[C@]12C [Cpd 63, Glycochalic acid] .
0

Using NR2F6 (ligand binding domain, amino acids 163-404) (Homo sapiens) as the test system, report measured delta Tm of CCCCCCn1c(NCC)nc2c1c(=O)n(C)c(=O)n2C [Cpd 130] .
−0.5

Using NR2F6 (ligand binding domain, amino acids 163-404) (Homo sapiens) as the test system, report measured delta Tm of CCN=c1scc(-c2ccc3c(c2)NC(=O)CO3)n1N=C1CCCC1 [Cpd 137] .
0

// data source = patent US11241427B2
